- studyTarget: human GLP-1R (glucagon-like peptide-1 receptor) (human, UniProt P43220 24-463)
- test: cell-based or functional assay
*1 amine or outer side, *2 acyl side, *3 side chain or, on linkers, in order; H or OH if unused. Where no end group is shown, it is not given here. Side-chain parts run from the residue outwards. [ ]: non-standard residue; d: D form. The star is where a group is joined. C18 diacid = O=C(O)CCCCCCCCCCCCCCCCC(=O)*; γGlu = O=C(O)[C@H](CCC(=O)[*:2])N[*:1]; AEEA = NCCOCCOCC(=O)O; Aib = CC(C)(N)C(=O)O
Please go through the items and note down their Efficacy GLP-1R.
Write the value as a bare number.

Look up Efficacy GLP-1R for this binder: HADGTFTSDYST[Aib]LDK([AEEA-AEEA-γGlu-C18 diacid])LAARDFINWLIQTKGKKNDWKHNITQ-OH [Compound 22] 116

Look up Efficacy GLP-1R for this binder: HXDGTFISDYSTILDNLAARDFINWLIQTKITK (Aib at position 2; K33 acylated with C10, K(C10); C-terminus -OH) [Compound 2] 84

Look up Efficacy GLP-1R for this binder: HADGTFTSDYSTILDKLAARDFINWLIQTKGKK([AEEA-AEEA-γGlu-C18 diacid])NDWKHNITQ-OH [Compound 24] 113
